I'd appreciate it if you could supply INHIBITION values for the items below.
Tested on: Plasmodium berghei
Experiment: Screen against P. berghei liver stage (PbLuc), transformed with Luciferase, at 10uM
Assay type: functional, HepG2
Settings: tested at 10 uM
Hit rate of the full screen: of about 69,000 compounds, about 8,600 (12%) showed an effect of 50% or more. The full list was thinned out, with strong results kept by preference.
Numeric answer only, unit % assumed.

Please report INHIBITION with Plasmodium berghei for item COCc1nnc(NC(=O)c2cn(C(C)C)c3ccc(OC)cc23)s1 .
-42.5

Please report INHIBITION with Plasmodium berghei for item CNC(=O)c1nc(CC(=O)Nc2cccc(C(F)(F)F)c2)no1 .
-2.61

Please report INHIBITION with Plasmodium berghei for item CNc1snc(C)c1C(=O)N1CCCC(n2ccnc2)C1 (stereo not drawn) .
33.8

Please report INHIBITION with Plasmodium berghei for item Cn1c(=O)c2cc(C(=O)NCCOCC(F)(F)F)ccc2n(C)c1=O .
27.8

Please report INHIBITION with Plasmodium berghei for item Cc1cc2cccc(C(=O)N3CCOC(CCN(C)C)C3)c2o1 (stereo not drawn) .
33

Please report INHIBITION with Plasmodium berghei for item CC(C)c1nsc(N2CCS(=O)(=O)CC2)n1 .
-16.3

Please report INHIBITION with Plasmodium berghei for item CC(C)CCN(C(=O)c1ccc(-n2ncc(C#N)c2N)cc1)C1CC1 .
19.5

Please report INHIBITION with Plasmodium berghei for item COc1ccc(CNC(=O)Nc2cccnc2N2CCCC2)cc1OC .
31.2

Please report INHIBITION with Plasmodium berghei for item c1ncn(CC2CCCN(Cc3nc(-c4ccoc4)no3)C2)n1 (stereo not drawn) .
-34

Please report INHIBITION with Plasmodium berghei for item O=C(Nc1nc2c(s1)CN(S(=O)(=O)C1CC1)CC2)c1ccc(Cl)s1 .
73.3

Please report INHIBITION with Plasmodium berghei for item COc1ccsc1C(=O)N1CCCN(Cc2cscn2)CC1 .
-51.5

Please report INHIBITION with Plasmodium berghei for item COc1ccc(CN2CCn3cc(CN4CCCCC4)nc3C2)cc1 .
0.79

Please report INHIBITION with Plasmodium berghei for item CN(C)Cc1cc(=O)n2c(n1)CN(C(=O)Cc1ccsc1)CCC2 .
33.5

Please report INHIBITION with Plasmodium berghei for item CS(=O)(=O)NC[C@@H]1OC[C@H]2CN(Cc3ccsc3)CC[C@H]21 .
-4.32

Please report INHIBITION with Plasmodium berghei for item CC(C)Oc1ncccc1CNC(=O)NC(C)c1cccs1 (stereo not drawn) .
43.6

Please report INHIBITION with Plasmodium berghei for item Cc1ccc(C)c(CN2C[C@@H]3CC[C@H]2CN(C(=O)c2cccnc2)C3)c1 .
-70.7

Please report INHIBITION with Plasmodium berghei for item CN1C(=O)[C@@H]2CC[C@H]1CN(Cc1cccc(OCc3ccccn3)c1)C2 .
47.5

Please report INHIBITION with Plasmodium berghei for item CCC(C)C(=O)NCCc1nc(C(F)(F)F)cs1 (stereo not drawn) .
5.42

Please report INHIBITION with Plasmodium berghei for item COc1cccc(-c2ncc(CN3C[C@H]4CC[C@@H](C3)N(C)C4=O)s2)c1 .
78.9

Please report INHIBITION with Plasmodium berghei for item Cn1cc(CN2CCCC(c3nccnc3-c3cccc(F)c3)C2)cn1 (stereo not drawn) .
9.05

Please report INHIBITION with Plasmodium berghei for item CCCOc1ccc(C(=O)Oc2cc(=O)n3cccc(C)c3n2)cc1 .
0.207

Please report INHIBITION with Plasmodium berghei for item O=C(c1cscn1)N1CC[C@H]2C[C@@H](c3ccncn3)O[C@@H]2C1 .
43.9

Please report INHIBITION with Plasmodium berghei for item Cc1cccc(-c2ccc(C(=O)N3CCN(C4CC4)CC3)c(=O)[nH]2)c1 .
21.8

Please report INHIBITION with Plasmodium berghei for item Cc1noc(C)c1CN(C)Cc1cnc(N2CCOCC2)nc1 .
39.4

Please report INHIBITION with Plasmodium berghei for item CCN(CCn1cccn1)Cc1nc(-c2cc(F)ccc2F)oc1C .
26.1

Please report INHIBITION with Plasmodium berghei for item Cc1ccccc1C(NC(=O)NCC1(O)CCC1)C1CC1 (stereo not drawn) .
-15.9

Please report INHIBITION with Plasmodium berghei for item Nc1nc2c(c(NCC(c3cccnc3)N3CCOCC3)n1)CCCC2 (stereo not drawn) .
-21.3

Please report INHIBITION with Plasmodium berghei for item CNC(=O)c1cc(C2CCCN2)n[nH]1 (stereo not drawn) .
31.3

Please report INHIBITION with Plasmodium berghei for item O=C(Nc1nc2c(s1)CN(S(=O)(=O)C1CC1)CC2)Nc1ccccc1F .
64.5

Please report INHIBITION with Plasmodium berghei for item CNC(=O)CN(C)C(=O)c1ccc(-c2nc(C)cs2)cc1 .
40.7

Please report INHIBITION with Plasmodium berghei for item Cc1ccc(C)c(C(=O)N2CCC3(CCC(=O)N(CC(N)=O)C3)CC2)c1 .
15.2

Please report INHIBITION with Plasmodium berghei for item CNC(=O)C1(c2cnccn2)CCCN1C(=O)c1ccccn1 (stereo not drawn) .
42.4

Please report INHIBITION with Plasmodium berghei for item Cc1cc(C(=O)N(CC2CCCO2)c2ccncc2)c(C)o1 (stereo not drawn) .
26.4

Please report INHIBITION with Plasmodium berghei for item CC(C)c1nsc(N2CCOC3(CCCC3)C2)n1 .
-10.3

Please report INHIBITION with Plasmodium berghei for item Cc1oc(-c2ccsc2)nc1CNCCn1cccn1 .
53.4

Please report INHIBITION with Plasmodium berghei for item CCN(CCn1cccn1)Cc1nc(-c2ccc(F)cc2)oc1C .
62.4

Please report INHIBITION with Plasmodium berghei for item CC(C)c1nc(CN(C)Cc2cnc(N3CCOCC3)nc2)no1 .
74.7

Please report INHIBITION with Plasmodium berghei for item CC(=O)N1CC2(CCN(C(=O)C3CC3)CC2)c2cc(C)ccc21 .
84.5

Please report INHIBITION with Plasmodium berghei for item Cc1oc(-c2ccsc2)nc1CNC(C)Cn1cccn1 (stereo not drawn) .
39.7

Please report INHIBITION with Plasmodium berghei for item Cc1ncsc1C(=O)NCCNc1ncccn1 .
34.7

Please report INHIBITION with Plasmodium berghei for item CC(C)c1nsc(N2CCOCC2)n1 .
7.3

Please report INHIBITION with Plasmodium berghei for item CCn1cc(NC(=O)C2CCC(=O)N2Cc2ccco2)cn1 (stereo not drawn) .
20.4

Please report INHIBITION with Plasmodium berghei for item O=C(O)c1ccc(=O)n(CC(c2ccc(Cl)cc2)N2CCCCCC2)c1 (stereo not drawn) .
10.8

Please report INHIBITION with Plasmodium berghei for item Cc1noc(CN(C)Cc2cnc(N3CCOCC3)nc2)n1 .
20.1

Please report INHIBITION with Plasmodium berghei for item O=S(=O)(Cc1ccccc1)NCCc1nnc2n1CCC2 .
31.9

Please report INHIBITION with Plasmodium berghei for item COCCSCC(=O)NCc1ccnc(N(C)C)c1 .
46.4

Please report INHIBITION with Plasmodium berghei for item O=C(c1ccc(N2CCCC2)nc1)N1CCCC(c2nccs2)C1 (stereo not drawn) .
17.2

Please report INHIBITION with Plasmodium berghei for item Cn1ccnc1CN1CCc2onc(COCC3CC3)c2C1 .
19.6
